Assay: molar heat capacity at constant pressure
Conditions: 298.15 K; 101.33 kPa; Crystal; Drop calorimetry
readout-type: molar heat capacity at constant pressure (J/K/mol)

| molecule | unit-of-measurement | molar heat capacity at constant pressure |
| --- | --- | --- |
| OCC(F)(F)C(F)(F)C(F)(F)C(F)(F)C(F)(F)C(F)(F)C(F)(F)C(F)(F)C(F)(F)F | J/K/mol | 563.9 |
| OCC(F)(F)C(F)(F)C(F)(F)C(F)(F)C(F)(F)C(F)(F)C(F)(F)C(F)(F)C(F)(F)C(F)(F)C(F)(F)C(F)(F)C(F)(F)F | J/K/mol | 725.3 |
| OCC(F)(F)C(F)(F)C(F)(F)C(F)(F)C(F)(F)C(F)(F)C(F)(F)C(F)(F)C(F)(F)C(F)(F)C(F)(F)F | J/K/mol | 645.2 |
| OCC(F)(F)C(F)(F)C(F)(F)C(F)(F)C(F)(F)C(F)(F)C(F)(F)C(F)(F)F | J/K/mol | 515.9 |
| OCC(F)(F)C(F)(F)C(F)(F)C(F)(F)C(F)(F)C(F)(F)C(F)(F)C(F)(F)C(F)(F)C(F)(F)F | J/K/mol | 602.4 |
